target: human poliovirus receptor (PVR, CD155) expressed on cells (human) (UniProt P15151); assay: flow cytometry, binding to PVR-expressing HEK 293 cells; relative to N56E VH0/Vκ0
Below, each entry is listed with its recorded Relative EC50.
Please reply with the value in numeric form only.

Please review the following examples before continuing.
{"BINDER": "humanized 5B9 variant VH2/VK2 (antibody, V domains shown) VH: QVQLVQSGAEVKKPGASVKISCKATGYTFSNYWIEWIKQAPGQGLEWIGEIFPGSGRINFNEKFKGRATFTADTSIDTTYMELSRLRSDDTAVYYCARTKIYGNSFDYWGQGTLVTVSS VL: DIQMTQSPSSLSASVGDRVTITCKASQDVGTAVVWYQQKPGKAPKLLIYWASSRHEGVPDRFSGSGSGTDFTLTISSLQPEDFADYFCQQYSRYPLTFGQGTKLEIK", "PROPERTY_NAME": "Relative EC50", "OBSERVED": 0.81}
{"BINDER": "humanized 5B9 variant VH5/VK3 (antibody, V domains shown) VH: QVQLVQSGAEVKKPGASVKVSCKATGYTFSNYWIEWVRQAPGQGLEWMGEIFPGSGRINFNEKFKGRVTFTADTSISTAYMELSRLRSDDTAVYYCARTKIYGNSFDYWGQGTLVTVSS VL: DIQMTQSPSSLSASVGDRVTITCRASQDVGTAVVWYQQKPGKAPKLLIYWASSRHEGVPSRFSGSGSGTDFTLTISSLQPEDFATYFCQQYSRYPLTFGQGTKLEIK", "PROPERTY_NAME": "Relative EC50", "OBSERVED": 0.72}
{"BINDER": "humanized 5B9 variant VH5/VK2 (antibody, V domains shown) VH: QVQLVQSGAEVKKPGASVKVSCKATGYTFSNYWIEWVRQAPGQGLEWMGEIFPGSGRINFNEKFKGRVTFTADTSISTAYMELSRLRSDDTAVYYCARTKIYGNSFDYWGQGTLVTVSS VL: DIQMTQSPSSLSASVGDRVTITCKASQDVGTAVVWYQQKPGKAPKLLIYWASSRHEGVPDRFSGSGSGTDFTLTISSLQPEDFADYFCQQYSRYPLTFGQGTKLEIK", "PROPERTY_NAME": "Relative EC50", "OBSERVED": 0.82}

Input: Which Relative EC50 is listed for humanized 5B9 variant VH3/VK2 (antibody, V domains shown) VH: QVQLVQSGAEVKKPGASVKVSCKATGYTFSNYWIEWIKQAPGQGLEWIGEIFPGSGRINFNEKFKGRVTFTADTSISTTYMELSRLRSDDTAVYYCARTKIYGNSFDYWGQGTLVTVSS VL: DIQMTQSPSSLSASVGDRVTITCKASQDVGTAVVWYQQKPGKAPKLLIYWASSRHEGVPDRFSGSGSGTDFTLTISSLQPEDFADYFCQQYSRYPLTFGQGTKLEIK ?
Output: 0.66

Input: And the next one, humanized 5B9 variant VH3/VK3 (antibody, V domains shown) VH: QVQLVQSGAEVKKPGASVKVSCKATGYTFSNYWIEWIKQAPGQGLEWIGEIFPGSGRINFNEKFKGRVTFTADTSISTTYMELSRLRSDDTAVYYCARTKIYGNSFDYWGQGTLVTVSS VL: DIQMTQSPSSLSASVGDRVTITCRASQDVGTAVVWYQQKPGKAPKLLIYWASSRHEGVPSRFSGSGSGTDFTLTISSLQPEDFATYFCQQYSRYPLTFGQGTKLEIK ?
Output: 0.68

Input: And what about the binder humanized 5B9 variant VH2/VK3 (antibody, V domains shown) VH: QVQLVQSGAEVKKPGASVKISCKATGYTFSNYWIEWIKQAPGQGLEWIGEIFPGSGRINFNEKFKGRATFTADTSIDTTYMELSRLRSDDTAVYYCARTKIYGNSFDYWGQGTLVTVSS VL: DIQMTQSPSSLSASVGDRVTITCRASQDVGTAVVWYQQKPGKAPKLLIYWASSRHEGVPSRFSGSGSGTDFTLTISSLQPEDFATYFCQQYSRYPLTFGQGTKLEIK ?
Output: 0.76

Input: Would you kindly repeat that for humanized 5B9 variant VH4/VK3 (antibody, V domains shown) VH: QVQLVQSGAEVKKPGASVKVSCKATGYTFSNYWIEWVRQAPGQGLEWIGEIFPGSGRINFNEKFKGRVTFTADTSISTTYMELSRLRSDDTAVYYCARTKIYGNSFDYWGQGTLVTVSS VL: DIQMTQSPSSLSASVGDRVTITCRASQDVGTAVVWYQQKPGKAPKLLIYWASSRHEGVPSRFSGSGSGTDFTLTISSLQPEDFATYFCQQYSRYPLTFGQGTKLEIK ?
Output: 0.75

Each recorded value in this set is attributed to patent US20260152568A1.
